- Tested on: WT α-Synuclein amyloid fibrils (human)
- Procedure text: microfluidic diffusional sizing; Alexa647-labelled BRICHOS held constant (three concentrations a curve set), α-Syn fibrils varied between 0.01 and 24 µM (monomer equivalents), equilibrium within 2 hours; global fit of Kd and stoichiometry
Each entry below lists one item and its recorded Kd value.
Readout: Kd (µM)

proSP-C BRICHOS (K114I, R139Q) (from UniProt P11686 90-197) (domain or fragment) : 450
proSP-C BRICHOS (E135R, R139E) (from UniProt P11686 90-197) (domain or fragment) : 0.00126

====

Each entry below lists one item and its recorded Kd value.
- Tested on: Aβ42 amyloid fibrils (UniProt P05067)
- Procedure text: microfluidic diffusional sizing; Alexa647-labelled BRICHOS held constant (three concentrations a curve set), Aβ42 fibrils varied between 0.01 and 24 µM (monomer equivalents), incubated 48 h; global fit of Kd and stoichiometry
Readout: Kd (nM)

WT proSP-C BRICHOS domain (residues 90-197) (from UniProt P11686 90-197) (domain or fragment) : 192
proSP-C BRICHOS (K114I, R139Q) (from UniProt P11686 90-197) (domain or fragment) : 21.4
